Test system: CD2F1 mice, L1210 leukemia ip, survival T/C
Assay: NCI In Vivo Anticancer Drug Screen. Data for tumor model L1210 Leukemia (intraperitoneal) in CD2F1 (CDF1) mice
Details: endpoint: mean survival time; dose: 400.0 mg/kg/injection; schedule: Q01DX009 (ip); vehicle: saline with Tween-80; higher = longer survival
Inconclusive results and toxic doses are left out.
Recorded T/C for the following compounds

Here is how some compounds turned out for T/C.
O=C1N(C2CCCCC2)CC2C(c3ccccc3)NNC12O (stereo not given): 100 % of control
NC(=O)C1CCCCC1C(N)=O (stereo not given): 103 % of control
Cc1ccc([N+](=O)[O-])cc1NC(=O)NNC(=O)CNC(=O)Nc1ccc(F)cc1: 92 % of control

In: Answer with reported T/C of COC(=O)CC1(C(=O)OC)OC(=O)c2ccccc2N1C (stereo not given)
Out: 101 % of control

In: Answer with reported T/C of `c1ccc2c(c1)nnc1ccccc12`
Out: 110 % of control

----------
Recorded T/C for the following compounds
Tested on: CD2F1 mice, L1210 leukemia ip, survival T/C
Assay: NCI In Vivo Anticancer Drug Screen. Data for tumor model L1210 Leukemia (intraperitoneal) in CD2F1 (CDF1) mice
Conditions: endpoint: mean survival time; dose: 200.0 mg/kg/injection; schedule: Q04DX002 (ip); vehicle: saline with Tween-80; higher = longer survival
Toxic doses and inconclusive results are not listed.

Here is how some compounds turned out for T/C.
CC(=O)CC(C)=Nc1cccc(Cl)c1: 95 % of control
COC1=C(Br)C(O)C2(C=C1Br)CC(C(=O)NCCCCNC(=O)C1=NOC3(C=C(Br)C(OC)=C(Br)C3O)C1)=NO2 (stereo not drawn): 97 % of control

Then there is this compound:
In: Please look at CC1(C)OC2C(COC(=O)Oc3ccccc3)OC(n3cnc4c(=O)[nH]cnc43)C2O1 (stereo not drawn) and tell me its recorded T/C on CD2F1 mice, L1210 leukemia ip, survival T/C.
Out: 94 % of control

----------
Recorded T/C for the following compounds
Test system: CD2F1 mice, L1210 leukemia ip, survival T/C
Test: NCI In Vivo Anticancer Drug Screen. Data for tumor model L1210 Leukemia (intraperitoneal) in CD2F1 (CDF1) mice
Conditions: endpoint: mean survival time; dose: 100.0 mg/kg/injection; schedule: Q04DX003 (ip); vehicle: saline; higher = longer survival
Experimental: The antitumor activity of compounds was measured in mice bearing transplantable tumors. Survival or tumor size were measured and the results are expressed as the measurement made in the treated group (T) divided by the measurement made in the vehicle treated control group (C). The tumor model used in this assay is L1210 Leukemia (intraperitoneal) in CD2F1 (CDF1) mice
Inconclusive results and toxic doses are left out.

Here is how some compounds turned out for T/C.
CNC(=O)NC1CCC(C)CC1 (configuration not stated): 98 % of control
O=C(O)C1(O)C[C@@H](O)C(O)[C@H](O)C1 (some centres not stated): 108 % of control
Nc1c2ccccc2c[n+]2ccccc12: 121 % of control
CN(C)CCCCO: 95 % of control

In: Answer with reported T/C of `COC(=O)C(C)=O`
Out: 97 % of control

In: Answer with reported T/C of `Cc1cc(=O)[nH]c2c1c(C#N)cn2C1CCCCC1`
Out: 101 % of control

In: Answer with reported T/C of `NC(=O)CCC(=O)NCCN1CC1`
Out: 96 % of control
